Entries annotated with measured pKd
- assay.system: T1, huCD46-His (human, UniProt P15529 35-343)
- T1 construct: extracellular domain; Immobilised by amine coupling on the SPR chip; It may be the same protein as the ELISA antigen; also called Human CD46-His; human CD46; not shown: His tag
- T1 sequence (looked up): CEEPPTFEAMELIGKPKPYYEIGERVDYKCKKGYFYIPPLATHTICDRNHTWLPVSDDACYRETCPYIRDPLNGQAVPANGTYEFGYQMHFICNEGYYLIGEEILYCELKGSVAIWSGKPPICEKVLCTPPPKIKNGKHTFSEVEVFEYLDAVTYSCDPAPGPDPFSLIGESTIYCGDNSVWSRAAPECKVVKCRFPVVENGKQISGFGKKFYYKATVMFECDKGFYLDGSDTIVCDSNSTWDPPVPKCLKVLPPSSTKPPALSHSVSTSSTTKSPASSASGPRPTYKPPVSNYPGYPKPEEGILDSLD
- method.description: SPR, huCD46-His immobilised, antibody as analyte, pH 7.4
# pKd: negative log10 of molar concentration; output just the value

The cases that follow already have their pKd on record.
{"binder": "BA-133-04-04 (antibody, V domains shown, the killing assays used the ADC form; also called CPE hit BA133-04-04) VH: EVQLVESGGGLVQPGGSLRLSCAASGGSVSSYDISWIRQSPSRGLEWLGVIWTDGGTNYNSAFMSRFTISRDDSKNTAYLQMNSLKTEDTAVYYCERVYDGYPWFAYWGQGTLVTVSS VL: AIQLTQSPSSLSASVGDRVTITCRASQGISNYLNWYLQKPGQSPQLLIYYTSSLHEGVPDRFSGSGSGTDFTLKISRVEAEDVGVYYCQQYIKLPWTFGQGTKVEIK", "observed.value": 8.31}
{"binder": "BA-133-04-01 (antibody, V domains shown, also called CPE hit BA133-04-01) VH: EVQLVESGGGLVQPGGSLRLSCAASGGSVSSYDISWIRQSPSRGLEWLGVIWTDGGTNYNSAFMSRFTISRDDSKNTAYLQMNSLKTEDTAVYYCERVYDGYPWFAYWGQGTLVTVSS VL: AIQLTQSPSSLSASVGDRVTITCRASQWISNYLNWYLQKPGQSPQLLIYYTSSLHSGVPDRFSGSGSGTDFTLKISRVEAEDVGVYYCQQYIKLPWTFGQGTKVEIK", "observed.value": 8.40}
{"binder": "BA-133-04-03 (antibody, V domains shown, also called CPE hit BA133-04-03) VH: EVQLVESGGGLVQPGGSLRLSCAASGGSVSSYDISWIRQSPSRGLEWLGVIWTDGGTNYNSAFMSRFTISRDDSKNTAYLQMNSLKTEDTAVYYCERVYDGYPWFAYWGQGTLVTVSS VL: AIQLTQSPSSLSASVGDRVTITCRASQGISNYLNWYLQKPGQSPQLLIYYTSSLFSGVPDRFSGSGSGTDFTLKISRVEAEDVGVYYCQQYIKLPWTFGQGTKVEIK", "observed.value": 8.32}
{"binder": "Benchmark (BM) BA-133-00-01 (antibody, V domains shown, the killing assays used the ADC form; Conjugation site and payload are not described; also called BM (bench mark)) VH: QVQLQESGPGLVKPSETLSLTCTVSGGSVSSYDISWIRQPPGKGLEWIGVIWTDGGTNYNSAFMSRVTISVDTSKNQFSLKLSSVTAADTAVYYCARVYDGYPWFAYWGQGTLVTVSS VL: DIQMTQSPSSLSASVGDRVTITCRASQGISNYLNWYQQKPGKAPKLLIYYTSSLHSGVPSRFSGSGSGTDFTLTISSLQPEDFATYYCQQYIKLPWTFGGGTKLEIKR", "observed.value": 8.67}

# ---- query binder ----
pKd reported for this binder BAP133-2-03-03-SL (antibody, V domains shown, the killing assays used the ADC form; also called BAP133-02-03-03-SL; CPE hit BAP133-2-03-03-SL) VH: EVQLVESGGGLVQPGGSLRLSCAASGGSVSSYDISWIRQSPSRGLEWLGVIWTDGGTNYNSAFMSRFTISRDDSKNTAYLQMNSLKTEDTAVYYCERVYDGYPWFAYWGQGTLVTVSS VL: AIQLTQSPSSLSASVGDRVTITCRASQGISNYLNWYLQKPGQSPQLLIYYTSSLHSGVPDRFSGSGSGTDFTLKISRVEAEDVGVYYCQQYIKLPWTFGQGTKVEIK : 9.05

Attribution: patent US20230242662A1
